# ASSAY INFO: Stability of 16,16-dimethyl PGE2 formulation, storage at −80° C.
# Format: physicochemical
# SETTINGS: Time Zero
MEASURED PROPERTY: pH
Numbers only.

Query string: Any idea what its pH is? The compound is CCCCC(C)(C)[C@H](O)/C=C/[C@H]1[C@H](O)CC(=O)[C@@H]1C/C=C\CCCC(=O)O
Result string: 4.5
